- assay-protocol: Evaluation of conversion rate to active form in buffer solution (Experimental Example 1)
- Format: physicochemical
- condition-parameters: pH5.0, 3 hr, 37° C., 25 umol/L in buffer solution
Would you mind telling me the reported Residual rate of each entry?
Numbers only, in %.

# example entries with known answers
compound | Residual rate (%)
CN1CC[C@H](c2c(OC(=O)N(Cc3ccccc3)CC3CCCCN3)cc(O)c3c(=O)cc(-c4ccccc4Cl)oc23)[C@H](O)C1 (stereo partly drawn) [Example 15] | 92.5
CCCN(C[C@@H]1CCCCN1)C(=O)Oc1cc(O)c2c(=O)cc(-c3ccccc3Cl)oc2c1[C@H]1CCN(C)C[C@H]1O [Example 5] | 95.8

Moving on to the next compound.
Which Residual rate is listed for CN1CC[C@H](c2c(OC(=O)N(CCCC(F)(F)F)CC3CCCCN3)cc(O)c3c(=O)cc(-c4ccccc4Cl)oc23)[C@H](O)C1 (stereo partly drawn) [Example 14] ?
52.7

----------
- assay-protocol: Evaluation of conversion rate to active form in buffer solution (Experimental Example 1)
- Assay type: physicochemical
- condition-parameters: pH5.5, 0.5 hr, 37° C., 25 umol/L in buffer solution
Kindly supply the reported Residual rate values for the records listed here.
# answer = value followed by unit

compound | Residual rate
CN1CC[C@H](c2c(OC(=O)N(CCF)CC3CCCCN3)cc(O)c3c(=O)cc(-c4ccccc4Cl)oc23)[C@H](O)C1 (stereo partly drawn) | 81.8%
CN1CC[C@H](c2c(OC(=O)N(Cc3ccccc3)CC3CCCCN3)cc(O)c3c(=O)cc(-c4ccccc4Cl)oc23)[C@H](O)C1 (stereo partly drawn) | 94.2%
CCN(C[C@@H]1CCCCN1)C(=O)Oc1cc(O)c2c(=O)cc(-c3ccccc3Cl)oc2c1[C@H]1CCN(C)C[C@H]1O [Example 1, ditrifluoroacetate] | 97.3%
CC(C)N(CC1CCCCN1)C(=O)Oc1cc(O)c2c(=O)cc(-c3ccccc3Cl)oc2c1[C@H]1CCN(C)C[C@H]1O (stereo partly drawn) | 90.4%
COCCN(CC1CCCCN1)C(=O)Oc1cc(O)c2c(=O)cc(-c3ccccc3Cl)oc2c1[C@H]1CCN(C)C[C@H]1O (stereo partly drawn) | 79.9%

So what's the measured Residual rate for this one? CCN(CCC1CCCCN1)C(=O)Oc1cc(O)c2c(=O)cc(-c3ccccc3Cl)oc2c1[C@H]1CCN(C)C[C@H]1O (stereo partly drawn)
85.8%

----------
- assay-protocol: Evaluation of conversion rate to active form in buffer solution (Experimental Example 1)
- Format: physicochemical
- condition-parameters: pH7.0, 0.5 hr
observable: Residual rate (%)
Give bare numbers, in %.

Past entries and their recorded results:
compound | Residual rate [%]
CCOC(=O)O[C@@H]1CN(C)CC[C@@H]1c1c(O)cc(O)c2c(=O)cc(-c3ccccc3Cl)oc12 [Comparative Example 3, reference compound] | 91.0
CNC(=O)Oc1cc(O)c2c(=O)cc(-c3ccccc3Cl)oc2c1[C@H]1CCN(C)C[C@H]1O [Comparative Example 2, reference compound] | 0.0
CCNC(=O)O[C@@H]1CN(C)CC[C@@H]1c1c(O)cc(O)c2c(=O)cc(-c3ccccc3Cl)oc12 [Comparative Example 4, reference compound] | 97.7
CNC(=O)O[C@@H]1CN(C)CC[C@@H]1c1c(O)cc(O)c2c(=O)cc(-c3ccccc3Cl)oc12 [Comparative Example 5, reference compound] | 93.4

Now examine the next entry.
Need Residual rate, item CC(C)[C@H](N)C(=O)O[C@@H]1CN(C)CC[C@@H]1c1c(O)cc(O)c2c(=O)cc(-c3ccccc3Cl)oc12 [Comparative Example 10, reference compound]
92.3

----------
- assay-protocol: Evaluation of conversion rate to active form in buffer solution (Experimental Example 1)
- Assay type: physicochemical
- condition-parameters: pH5.0, 0.5 hr, 37° C., 25 umol/L in buffer solution
Where a name gives a salt, the structure may show the parent alone.
Assign Production rate of Alvocidib to each entry below.
Answers are plain numbers, in %.

Some compounds with recorded Production rate of Alvocidib:
compound | Production rate of Alvocidib (%)
CCN(CC1CCCCN1)C(=O)Oc1cc(O)c2c(=O)cc(-c3ccccc3Cl)oc2c1[C@H]1CCN(C)C[C@H]1O (some centres unmarked) [Example 7, dihydrochloride] | 0.0
CN1CC[C@H](c2c(OC(=O)N(CCC(F)(F)F)CC3CCCCN3)cc(O)c3c(=O)cc(-c4ccccc4Cl)oc23)[C@H](O)C1 (some centres unmarked) | 3.9
CCN(C[C@@H]1CCCCN1)C(=O)Oc1cc(O)c2c(=O)cc(-c3ccccc3Cl)oc2c1[C@H]1CCN(C)C[C@H]1O [Example 1, ditrifluoroacetate] | 0.4

Batch of 2 compounds: report Production rate of Alvocidib for each.
1. CCCN(C[C@@H]1CCCCN1)C(=O)Oc1cc(O)c2c(=O)cc(-c3ccccc3Cl)oc2c1[C@H]1CCN(C)C[C@H]1O
2. CN1CC[C@H](c2c(OC(=O)N(CCCC(F)(F)F)CC3CCCCN3)cc(O)c3c(=O)cc(-c4ccccc4Cl)oc23)[C@H](O)C1 (some centres unmarked)

0.6
29.9

----------
- assay-protocol: Evaluation of conversion rate to active form in buffer solution (Experimental Example 1)
- Format: physicochemical
- condition-parameters: pH 5, 37° C., up to 2 or 3 hours
observable: Stability in buffer solution at pH 5

Field: example entries. Status: answers known.
molecule | Stability in buffer solution at pH 5
COCCN(CC1CCCCN1)C(=O)Oc1cc(O)c2c(=O)cc(-c3ccccc3Cl)oc2c1[C@H]1CCN(C)C[C@H]1O (stereo partly drawn) | stable
CN1CC[C@H](c2c(OC(=O)N(CCCC(F)(F)F)CC3CCCCN3)cc(O)c3c(=O)cc(-c4ccccc4Cl)oc23)[C@H](O)C1 (stereo partly drawn) | stable
CNCCN(C)C(=O)Oc1cc(O)c2c(=O)cc(-c3ccccc3Cl)oc2c1[C@H]1CCN(C)C[C@H]1O [Comparative Example 14, reference compound] | unstable
CN1CC[C@H](c2c(OC(=O)N(C)CC3CCCCN3)cc(O)c3c(=O)cc(-c4ccccc4Cl)oc23)[C@H](O)C1 (stereo partly drawn) | stable
CN1CC[C@H](c2c(OC(=O)N(C)C[C@@H]3CCCCN3)cc(O)c3c(=O)cc(-c4ccccc4Cl)oc23)[C@H](O)C1 | stable

// below: Stability in buffer solution at pH 5 requested for another molecule
Consider the molecule shown here: CNC(=O)Oc1cc(O)c2c(=O)cc(-c3ccccc3Cl)oc2c1[C@H]1CCN(C)C[C@H]1O [Comparative Example 2, reference compound] What is its recorded Stability in buffer solution at pH 5?
unstable

----------
- assay-protocol: Evaluation of conversion rate to active form in buffer solution (Experimental Example 1)
- Type: physicochemical
- condition-parameters: pH5.5, 0.5 hr, 37° C., 25 umol/L in buffer solution
For each record, write down the corresponding Residual rate.
Give bare numbers, in %.

compound | observed
CCN(C[C@H]1CCCCN1)C(=O)Oc1cc(O)c2c(=O)cc(-c3ccccc3Cl)oc2c1[C@H]1CCN(C)C[C@H]1O [Example 2] | 95.1

Please give Residual rate for each item listed below.
1. CN1CC[C@H](c2c(OC(=O)N(C)C[C@@H]3CCCCN3)cc(O)c3c(=O)cc(-c4ccccc4Cl)oc23)[C@H](O)C1 [Example 3]
2. CN1CC[C@H](c2c(OC(=O)N(C)CC3CCCCN3)cc(O)c3c(=O)cc(-c4ccccc4Cl)oc23)[C@H](O)C1 (stereo partly drawn) [Example 8]
3. CN1CC[C@H](c2c(OC(=O)N(CCCC(F)(F)F)CC3CCCCN3)cc(O)c3c(=O)cc(-c4ccccc4Cl)oc23)[C@H](O)C1 (stereo partly drawn) [Example 14]
4. CN1CC[C@H](c2c(OC(=O)N(CCC(F)(F)F)CC3CCCCN3)cc(O)c3c(=O)cc(-c4ccccc4Cl)oc23)[C@H](O)C1 (stereo partly drawn) [Example 13]
5. CCNC(=O)Oc1cc(O)c2c(=O)cc(-c3ccccc3Cl)oc2c1[C@H]1CCN(C)C[C@H]1O [Comparative Example 1, reference compound]

1. 98.2
2. 95.0
3. 55.8
4. 79.2
5. 25.3

----------
- assay-protocol: Evaluation of conversion rate to active form in buffer solution (Experimental Example 1)
- Format: physicochemical
- condition-parameters: pH7.0, 2 hr
Field: Production rate of Alvocidib. Provide a value for each of the compounds that follow.
Numbers only, in %.

compound | observed
CC(C)[C@H](N)C(=O)O[C@@H]1CN(C)CC[C@@H]1c1c(O)cc(O)c2c(=O)cc(-c3ccccc3Cl)oc12 [Comparative Example 10, reference compound] | 15.5
CNCCN(C)C(=O)Oc1cc(O)c2c(=O)cc(-c3ccccc3Cl)oc2c1[C@H]1CCN(C)C[C@H]1O [Comparative Example 14, reference compound] | 96.7
CN1CC[C@H](c2c(O)cc(O)c3c(=O)cc(-c4ccccc4Cl)oc23)[C@H](OC(=O)[C@@H](N)CO)C1 [Comparative Example 9, reference compound] | 47.2
CN1CC[C@H](c2c(O)cc(O)c3c(=O)cc(-c4ccccc4Cl)oc23)[C@H](OC(=O)CN)C1 [Comparative Example 8, reference compound] | 67.6
C[C@H](N)C(=O)O[C@@H]1CN(C)CC[C@@H]1c1c(O)cc(O)c2c(=O)cc(-c3ccccc3Cl)oc12 [Comparative Example 7, reference compound] | 85.8

Would you mind listing Production rate of Alvocidib for each of the following compounds?
1. CNC(=O)O[C@@H]1CN(C)CC[C@@H]1c1c(O)cc(O)c2c(=O)cc(-c3ccccc3Cl)oc12 [Comparative Example 5, reference compound]
2. CNC(=O)Oc1cc(O)c2c(=O)cc(-c3ccccc3Cl)oc2c1[C@H]1CCN(C)C[C@H]1O [Comparative Example 2, reference compound]
3. CCNC(=O)O[C@@H]1CN(C)CC[C@@H]1c1c(O)cc(O)c2c(=O)cc(-c3ccccc3Cl)oc12 [Comparative Example 4, reference compound]
4. CN1CC[C@H](c2c(OC(=O)N(C)CCN)cc(O)c3c(=O)cc(-c4ccccc4Cl)oc23)[C@H](O)C1 [Comparative Example 13, reference compound]
5. CCOC(=O)O[C@@H]1CN(C)CC[C@@H]1c1c(O)cc(O)c2c(=O)cc(-c3ccccc3Cl)oc12 [Comparative Example 3, reference compound]

0.0
98.3
1.8
91.0
1.4
